pIC50 by entry:
target_desc: human kinase Mps-1 (Homo sapiens, UniProt P33981)
Construct: N-terminally GST-tagged human full length recombinant Mps-1 kinase; GST (N)
method_notes: Mps-1 kinase assay (TR-FRET)
assay_conditions: N-terminally GST-tagged human full length recombinant Mps-1; 10 μM ATP; 1 μM peptide substrate; 60 min at 22° C.
// pIC50 is dimensionless: -log10 of concentration (M)

Noted for Cc1cc(-c2cnc3c(NCCC(F)(F)F)cc(Oc4cccc(F)c4F)cn23)ccc1C(=O)NC1(C#N)CC1 : its pIC50 reads 8.42

Noted for C#Cc1cc(NCCC(F)(F)F)c2ncc(-c3ccc(C(=O)N[C@@H]4C[C@H]4F)c(C)c3)n2c1 (relative stereo) : its pIC50 reads 7.53

Noted for Cc1cc(-c2cnc3c(NCCC(F)(F)F)cc(Oc4cccc(F)c4)cn23)ccc1C(=O)NC1CCC1 : its pIC50 reads 7.95

Noted for CCc1cc(NCCC(F)(F)F)c2ncc(-c3ccc(C(=O)N[C@H]4C[C@@H]4F)c(C)c3)n2c1 (relative stereo) : its pIC50 reads 7.19

Noted for CNC(=O)c1ccc(-c2cnc3c(NCCC(F)(F)F)cc(Oc4ccc(OC)c(F)c4)cn23)cc1C : its pIC50 reads 8.80

Noted for C/C=C/c1cc(NCCC(F)(F)F)c2ncc(-c3ccc(C(=O)NCC)c(C)c3)n2c1 : its pIC50 reads 7.35

---

pIC50 by entry:
target_desc: human kinase Mps-1 (Homo sapiens, UniProt P33981)
Construct: N-terminally GST-tagged human full length recombinant Mps-1 kinase; GST (N)
method_notes: Mps-1 kinase assay (TR-FRET)
assay_conditions: N-terminally GST-tagged human full length recombinant Mps-1; 10 μM ATP; 1 μM peptide substrate; 60 min at 22° C.
// pIC50 is dimensionless: -log10 of concentration (M)

- compound: "Cc1cc(-c2cnc3c(NCCC(F)(F)F)cc(CCO)cn23)ccc1C(=O)NC1CC1"
  pIC50: 7.58

// assay human kinase Mps-1 (Homo sapiens, UniProt P33981), entry CCc1cc(NCCC(F)(F)F)c2ncc(-c3ccc(C(=O)N[C@H]4C[C@@H]4C)c(C)c3)n2c1 (relative stereo) , pIC50 value = 7.30

// assay human kinase Mps-1 (Homo sapiens, UniProt P33981), entry Cc1ccc(F)cc1Oc1cc(NCCC(F)(F)F)c2ncc(-c3ccc(C(=O)NC4(C5CC5)CC4)c(C)c3)n2c1 , pIC50 value = 7.31

---

target_desc: human kinase Mps-1 (Homo sapiens)
Construct: N-terminally GST-tagged human full length recombinant Mps-1 kinase; GST (N)
Sequence (P33981 1-857): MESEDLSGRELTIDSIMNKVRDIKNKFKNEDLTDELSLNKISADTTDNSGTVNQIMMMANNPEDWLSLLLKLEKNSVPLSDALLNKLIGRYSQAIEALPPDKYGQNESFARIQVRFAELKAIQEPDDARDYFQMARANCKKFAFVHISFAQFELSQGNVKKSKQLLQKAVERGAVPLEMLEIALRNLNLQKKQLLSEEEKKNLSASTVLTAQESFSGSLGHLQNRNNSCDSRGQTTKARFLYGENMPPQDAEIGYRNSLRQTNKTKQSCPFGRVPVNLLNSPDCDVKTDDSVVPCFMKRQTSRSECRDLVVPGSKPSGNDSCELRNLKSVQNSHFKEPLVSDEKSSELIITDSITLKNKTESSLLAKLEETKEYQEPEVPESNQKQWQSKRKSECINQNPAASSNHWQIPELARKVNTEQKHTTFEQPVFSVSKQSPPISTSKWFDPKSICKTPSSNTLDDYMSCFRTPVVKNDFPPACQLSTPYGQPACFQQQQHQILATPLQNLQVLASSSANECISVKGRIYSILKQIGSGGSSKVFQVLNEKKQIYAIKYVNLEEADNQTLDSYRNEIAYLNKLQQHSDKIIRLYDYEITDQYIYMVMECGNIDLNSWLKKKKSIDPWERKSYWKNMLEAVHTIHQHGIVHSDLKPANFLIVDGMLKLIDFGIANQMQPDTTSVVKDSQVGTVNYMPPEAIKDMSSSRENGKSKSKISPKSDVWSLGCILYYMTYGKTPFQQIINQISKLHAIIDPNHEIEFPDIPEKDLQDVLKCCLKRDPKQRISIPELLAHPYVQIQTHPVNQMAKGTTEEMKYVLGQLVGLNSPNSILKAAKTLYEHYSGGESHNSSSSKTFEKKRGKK
method_notes: Mps-1 kinase assay (TR-FRET)
assay_conditions: N-terminally GST-tagged human full length recombinant Mps-1; 10 μM ATP; 1 μM peptide substrate; 60 min at 22° C.
IC50 by entry:

For orientation, consider the following solved cases.
- compound: "Cc1cc(-c2cnc3c(NCCC(F)(F)F)cc(Oc4ccc(OC(F)(F)F)c(F)c4)cn23)ccc1C(=O)NC1CC1"
  IC50: "68.7 nM"
- compound: "Cc1cc(-c2cnc3c(NCCC(F)(F)F)cc(Oc4ccc(OCc5ccccc5)cc4)cn23)ccc1C(=O)NC1CC1"
  IC50: "17.8 nM"

Noted for Cc1cc(-c2cnc3c(NCCC(F)(F)F)cc(Oc4ccc(OC(F)(F)F)cc4)cn23)ccc1C(=O)NC1(C)CC1 : its IC50 reads 161 nM

---

pIC50 by entry:
target_desc: human kinase Mps-1 (Homo sapiens, UniProt P33981)
Construct: N-terminally GST-tagged human full length recombinant Mps-1 kinase; GST (N)
method_notes: Mps-1 kinase assay (TR-FRET)
assay_conditions: N-terminally GST-tagged human full length recombinant Mps-1; 10 μM ATP; 1 μM peptide substrate; 60 min at 22° C.
// pIC50 is dimensionless: -log10 of concentration (M)

For orientation, consider the following solved cases.
- molecule: "CCNC(=O)c1ccc(-c2cnc3c(NCCC(F)(F)F)cc(Oc4ccc(OC(F)(F)F)c(F)c4)cn23)cc1C"
  pIC50: 7.15
- molecule: "C=Cc1cc(NCCC(F)(F)F)c2ncc(-c3ccc(C(=O)NCC)c(C)c3)n2c1"
  pIC50: 7.07
- molecule: "Cc1ccc(F)cc1Oc1cc(NCC(F)F)c2ncc(-c3ccc(C(=O)NC4CC4)c(C)c3)n2c1"
  pIC50: 7.86

Noted for CCc1cc(NCCC(F)(F)F)c2ncc(-c3ccc(C(=O)NC4(C)CC4)c(C)c3)n2c1 : its pIC50 reads 6.88

Noted for CNC(=O)c1ccc(-c2cnc3c(NCCC(F)(F)F)cc(-c4ccc(C(=O)NC5CC5)c(C)c4)cn23)cc1C : its pIC50 reads 8.21

Noted for Cc1cc(-c2cnc3c(NCCC(F)(F)F)cc(-c4ccccc4O)cn23)ccc1C(=O)NC1CC1 : its pIC50 reads 8.96

Noted for CCNC(=O)c1ccc(-c2cnc3c(NCCC(F)(F)F)cc(-c4ccccc4O)cn23)cc1C : its pIC50 reads 7.86

Noted for COc1ccc(Oc2cc(NCCC(F)(F)F)c3ncc(-c4ccc(C(=O)NC5CC5)c(C)c4)n3c2)cc1F : its pIC50 reads 9.40

---

target_desc: human kinase Mps-1 (Homo sapiens, UniProt P33981)
Construct: N-terminally GST-tagged human full length recombinant Mps-1 kinase; GST (N)
method_notes: Mps-1 kinase assay (TR-FRET)
assay_conditions: N-terminally GST-tagged human full length recombinant Mps-1; 10 μM ATP; 1 μM peptide substrate; 60 min at 22° C.
endpoint_name: IC50 (nM)
Just the number please, in nM, no unit attached.

For orientation, consider the following solved cases.
- smiles_representation: "CCNC(=O)c1ccc(-c2cnc3c(NCCC(F)(F)F)cc(Oc4cccc(O)c4)cn23)cc1C"
  result_unit: "nM"
  number: 1.3
- smiles_representation: "COc1cccc(Oc2cc(NCCC(F)(F)F)c3ncc(-c4ccc(C(=O)NC5(C)CC5)c(C)c4)n3c2)c1"
  result_unit: "nM"
  number: 16
- smiles_representation: "Cc1cc(-c2cnc3c(NCCC(F)(F)F)cc(Oc4cccc(F)c4)cn23)ccc1C(=O)NC1(C2CC2)CC1"
  result_unit: "nM"
  number: 97.6

As a next step, examine the compound that follows.
Noted for Cc1cc(-c2cnc3c(NCCC(F)(F)F)cc(-c4ccc(C(=O)NC5(CO)CC5)c(C)c4)cn23)ccc1C(=O)NC1CC1 : its IC50 reads 2.6

---

target_desc: human kinase Mps-1 (Homo sapiens)
Construct: N-terminally GST-tagged human full length recombinant Mps-1 kinase; GST (N)
method_notes: Mps-1 kinase assay (TR-FRET)
assay_conditions: N-terminally GST-tagged human full length recombinant Mps-1; 10 μM ATP; 1 μM peptide substrate; 60 min at 22° C.
endpoint_name: pIC50
// pIC50 is dimensionless: -log10 of concentration (M)

For orientation, consider the following solved cases.
- compound: "CNC(=O)c1ccc(-c2cnc3c(NCCC(F)(F)F)cc(-c4ccccc4O)cn23)cc1C"
  pIC50: 7.90
- compound: "C/C=C/c1cc(NCCC(F)(F)F)c2ncc(-c3ccc(C(=O)N[C@H]4C[C@@H]4C)c(C)c3)n2c1 (relative stereo)"
  pIC50: 8.03
- compound: "Cc1cc(-c2cnc3c(NCCC(F)(F)F)cc(Sc4cccc(F)c4F)cn23)ccc1C(=O)NC1CC1"
  pIC50: 9.52
- compound: "C/C=C/c1cc(NCCC(F)(F)F)c2ncc(-c3ccc(C(=O)NC4CC4)c(C)c3)n2c1"
  pIC50: 8.24
- compound: "Cc1cc(-c2cc(NCCC(F)(F)F)c3ncc(-c4ccc(C(=O)NC5CC5)c(C)c4)n3c2)ccc1C(=O)NC1CC1"
  pIC50: 9.05

// assay human kinase Mps-1 (Homo sapiens), entry CCNC(=O)c1ccc(-c2cc(NCCC(F)(F)F)c3ncc(-c4ccc(C(=O)NC5CC5)c(C)c4)n3c2)cc1C , pIC50 value = 9.00

// assay human kinase Mps-1 (Homo sapiens), entry Cc1cc(-c2cnc3c(NCCC(F)(F)F)cc(Oc4cccc(O)c4)cn23)ccc1C(=O)NC1CC1 , pIC50 value = 9.30
